Cited source: patent US20200087248A1

# method notes: Rat PK experiment
# Type: in vivo, Male rats
# run parameters: male; rat blood plasma, iv 3 mg/kg
# Protocol: Male rats were intravenously (iv) and intragastrically (po) administered the test compounds respectively, and LC-MS/MS was used to measure the blood plasma concentration of the compound in the bodies of the rat. The main pharmacokinetic parameters were calculated by utilizing WinNonlin 6.3 software.
Counter-ions that a name gives are not always drawn.
outcome measure: AUC(0-inf) (ng·h/mL)

>>> experimental_result("CC1(C)Cc2cc(OC/C(=C/F)CN)ccc2C(=O)N1 [HC38-E, hydrochloride]")
1160

###

pIC50: −log10 of the molar value. Structures can show the parent of a compound that is named as a salt.
This document collects pIC50 values reported for hERG (Homo sapiens).
outcome measure: pIC50

>>> experimental_result("NC/C(=C/F)COc1ccc(C(=O)NCc2ccccn2)cc1 [TM112-Z, trifluoroacetate]")
"< 5.00"
>>> experimental_result("Cc1ccc(N(C)C(=O)c2ccc(OCC(=CF)CN)cc2)cc1 [TM67, trifluoroacetate]")
"< 4.52"
>>> experimental_result("NC/C(=C/F)COc1ccc(-c2ncccn2)cc1 [TM39-Z, trifluoroacetate]")
"< 5.00"
>>> experimental_result("NC/C(=C\\F)COc1ccc(-c2ncccn2)cc1 [TM39-E, trifluoroacetate]")
"< 5.00"

###

# assayed system: VAP-1 (Homo sapiens)
# Sequence (Q16853 1-763): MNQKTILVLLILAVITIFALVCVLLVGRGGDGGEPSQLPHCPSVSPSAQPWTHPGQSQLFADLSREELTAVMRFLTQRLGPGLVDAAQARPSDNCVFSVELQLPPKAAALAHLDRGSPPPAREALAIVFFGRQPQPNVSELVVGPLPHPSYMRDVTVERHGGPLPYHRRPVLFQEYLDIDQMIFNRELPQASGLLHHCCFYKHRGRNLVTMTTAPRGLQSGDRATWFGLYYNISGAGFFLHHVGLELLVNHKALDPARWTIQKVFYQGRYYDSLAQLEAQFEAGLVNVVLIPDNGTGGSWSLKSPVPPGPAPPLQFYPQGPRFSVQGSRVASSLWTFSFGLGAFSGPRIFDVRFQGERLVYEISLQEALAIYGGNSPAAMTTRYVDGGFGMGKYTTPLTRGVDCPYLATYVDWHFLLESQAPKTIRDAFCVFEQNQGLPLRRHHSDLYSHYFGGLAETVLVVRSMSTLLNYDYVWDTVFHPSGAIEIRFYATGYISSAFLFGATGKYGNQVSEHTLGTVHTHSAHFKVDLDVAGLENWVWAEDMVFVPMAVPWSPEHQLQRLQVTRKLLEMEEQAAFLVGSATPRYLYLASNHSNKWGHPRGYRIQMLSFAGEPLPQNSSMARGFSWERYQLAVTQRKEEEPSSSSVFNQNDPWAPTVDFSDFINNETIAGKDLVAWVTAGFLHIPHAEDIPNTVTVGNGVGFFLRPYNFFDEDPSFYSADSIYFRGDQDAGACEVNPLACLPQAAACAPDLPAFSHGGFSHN
Structures can show the parent of a compound that is named as a salt.
just bin them by IC50: LOW (below 2 nM), MID (2 nM to below 4 nM), HIGH (4 nM or more)

>>> class_name("NC/C(=C/F)COc1ccc(C(=O)NC2CCOCC2)cc1 [TM76-Z, trifluoroacetate]")
"LOW"
>>> class_name("NCC(=CF)COc1ccc(C(=O)N2Cc3ccc(Cl)cc3C2)cc1 [TM71, trifluoroacetate]")
"MID"
>>> class_name("NC/C(=C/F)COc1ccc(-c2nc3ccccc3[nH]2)cc1")
"LOW"
>>> class_name("NC/C(=C/F)COc1ccc(C(=O)N2CCc3c(Cl)cccc3C2)cc1F [TM73-Z, trifluoroacetate]")
"MID"
>>> class_name("NCC(=CF)COc1ccc(C(=O)N2CCc3cc(C(F)(F)F)ccc3C2)cc1 [TM68, trifluoroacetate]")
"HIGH"
>>> class_name("NC/C(=C\\F)COc1ccc(C(=O)N2CCC(c3ccccc3)CC2)cc1 [TM44-E, trifluoroacetate]")
"HIGH"
>>> class_name("NC/C(=C/F)COc1ccc(C(=O)N2CCc3ccccc3C2)cc1")
"LOW"
>>> class_name("Cc1csc(-c2ccc(OCC(=CF)CN)cc2)n1")
"LOW"
>>> class_name("NC/C(=C/F)COc1ccc(C(=O)NCc2ccccn2)cc1 [TM112-Z, trifluoroacetate]")
"HIGH"
>>> class_name("NC/C(=C\\F)COc1ccc(-c2ncccn2)cc1 [TM39-E, trifluoroacetate]")
"LOW"
>>> class_name("NC/C(=C/F)COc1ccc(-c2nc3ccc(Cl)cc3s2)cc1F [TM74-Z, trifluoroacetate trifluoroacetate]")
"HIGH"
>>> class_name("NCC(=CF)COc1ccc(C(=O)N2CCC(c3ccccc3)CC2)cc1 [TM44, trifluoroacetate]")
"MID"
>>> class_name("Cc1ccc(N(C)C(=O)c2ccc(OCC(=CF)CN)cc2)cc1 [TM67, trifluoroacetate]")
"HIGH"
>>> class_name("NCC(=CF)COc1ccc(-c2ncccn2)cc1 [TM39, trifluoroacetate]")
"LOW"
>>> class_name("NC/C(=C\\F)COc1ccc(C(=O)Nc2ccc3c(c2)OCCO3)cc1")
"LOW"
>>> class_name("NC/C(=C\\F)COc1ccc2c(c1)C(=O)CC2 [TM7-E, trifluoroacetate]")
"MID"
>>> class_name("NC/C(=C/F)COc1ccc(-c2ncccn2)cc1 [TM39-Z, trifluoroacetate]")
"LOW"
>>> class_name("NC/C(=C\\F)COc1ccc(C(=O)Nc2ccccc2)cc1 [TM1-E, trifluoroacetate]")
"LOW"

###

pIC50: −log10 of the molar value. Where a name gives a salt, the structure may show the parent alone.
This document collects pIC50 values reported for VAP-1 (Homo sapiens).
outcome measure: pIC50

>>> experimental_result("NC/C(=C\\F)COc1ccc(C(=O)N2CCc3ccccc3C2)cc1 [TM45-E, trifluoroacetate]")
8.62
>>> experimental_result("NCC(=CF)COc1ccc(C(=O)N2CCc3ccccc3C2)cc1 [TM45, trifluoroacetate]")
9.05
>>> experimental_result("NCC(=CF)COc1ccc(C(=O)Nc2ccccc2)cc1 [TM1, trifluoroacetate]")
9.30
>>> experimental_result("NC/C(=C\\F)COc1ccc2c(c1)CCNC2=O [TM26-E, trifluoroacetate]")
8.00
>>> experimental_result("CC1(C)Cc2cc(OC/C(=C/F)CN)ccc2C(=O)N1 [HC38-E, hydrochloride]")
8.55
>>> experimental_result("NCC(=CF)COc1ccc(C(=O)N2CCC(c3ccccc3)CC2)cc1F [TM48, trifluoroacetate]")
8.19
>>> experimental_result("NCC(=CF)COc1ccc(-c2nc3ccc(Cl)cc3s2)cc1 [TM41, trifluoroacetate]")
8.32
>>> experimental_result("NC/C(=C/F)COc1ccc(C(=O)Nc2ccccc2)cc1 [TM1-Z, trifluoroacetate]")
9.15
>>> experimental_result("NC/C(=C\\F)COc1ccc(-c2nc3ccc(Cl)cc3s2)cc1F [TM74-E, trifluoroacetate trifluoroacetate]")
8.49
